Kindly state Amount of dissolution in CHA for each of the entries shown.
- Test summary: Solubility test: amount of cyclohexanol (CHA) added until the varnish became clouded
- Type: physicochemical
- Condition label: varnish of arylsulfonic acid compound with PTA (0.5 molar equivalents; 1.0 for NSO-2) in 1 g DMI, solid content 7.0 wt %; amount of CHA when the varnish became clouded
API: value field is a number in g; no unit string.

For O=S(=O)(O)c1ccc2c(Oc3c(F)c(F)c(-c4c(F)c(F)c(Oc5cc(S(=O)(=O)O)cc6cc(S(=O)(=O)O)ccc56)c(F)c4F)c(F)c3F)cc(S(=O)(=O)O)cc2c1 [NSO-2, Naphthalenedisulfonic acid compound, reference compound] the compound record lists Amount of dissolution in CHA as 3.3

For N#Cc1c(F)c(F)c(Oc2cc(S(=O)(=O)O)cc3cc(S(=O)(=O)O)ccc23)c(F)c1C#N [Example 3FNS-1] the compound record lists Amount of dissolution in CHA as 8.0

====

- Test summary: Solubility test: amount of cyclohexanol (CHA) added until the varnish became clouded
- Assay type: physicochemical
- Condition label: varnish of arylsulfonic acid compound with PTA (0.5 molar equivalents; 1.0 for NSO-2) in 1 g DMI, solid content 7.0 wt %; amount of CHA when the varnish became clouded
Parameter measured: Amount of dissolution in CHA

For O=S(=O)(O)c1ccc2c(Oc3c(F)c(F)c(C(F)(F)C(F)=C(F)F)c(F)c3F)cc(S(=O)(=O)O)cc2c1 [Example 9FNS-1] the compound record lists Amount of dissolution in CHA as >10 g

For N#Cc1c(F)c(F)c(Oc2cc(S(=O)(=O)O)cc3cc(S(=O)(=O)O)ccc23)c(F)c1F [Example 4FNS-2] the compound record lists Amount of dissolution in CHA as >10 g

For O=S(=O)(O)c1ccc2c(Oc3c(F)c(F)c(C(F)(F)F)c(F)c3F)cc(S(=O)(=O)O)cc2c1 [Example 7FNS-1] the compound record lists Amount of dissolution in CHA as >10 g
